The following compounds are listed with their measured pest or weed control at 250 g/ha values.
Test system: Alopecurus myosuroides (ALOMY)
test: Pre-emergence herbicidal activity, glasshouse pot test
Assay type: in vivo
condition-summary: Alopecurus myosuroides, 312 h; Rate 250 g/ha; pre-emergence spray; evaluated after 13 days; read-out: Pre-emergence activity ALOMY (100=total damage to plant; 0=no damage to plant)
Procedure: Seeds of a variety of test species were sown in standard soil in pots. […] After 13 days for pre and post-emergence, the test was evaluated (100=total damage to plant; 0=no damage to plant). […]
readout-name: pest or weed control at 250 g/ha (%)

>>> observed_value("CCc1ccc(Oc2ccc(C#N)c(Cl)c2)cc1C1=C(O)CC(C)(C)CC1=O")
70
>>> observed_value("CCc1ccc(Oc2cccc(F)c2F)cc1C1=C(O)C(C)(C)OC(C)(C)C1=O")
0
>>> observed_value("CC1(C)OC(C)(C)C(O)=C(c2cc(Oc3ccc(Cl)cc3)ccc2OC(F)(F)F)C1=O")
10
>>> observed_value("CCc1ccc(Oc2ccc(Cl)cc2)cc1C1=C(O)C(C)(C)OC(C)(C)C1=O")
40
>>> observed_value("CCc1ccc(Oc2nc3ccc(C)cc3s2)cc1C1=C(O)C(C)(C)OC(C)(C)C1=O")
60
>>> observed_value("CCc1ccc(Oc2nccc(C(F)(F)F)n2)cc1C1=C(O)C(C)(C)OC(C)(C)C1=O")
40
>>> observed_value("CCc1ccc(Oc2cnc3ccccc3n2)cc1C1=C(O)CC(C)(C)CC1=O")
70
>>> observed_value("CCc1ccc(Oc2ncc(Cl)cc2C(F)(F)F)cc1C1=C(O)CC2(CCOCC2)CC1=O")
90
>>> observed_value("CCc1ccc(Oc2ccc([N+](=O)[O-])cc2C(F)(F)F)cc1C1=C(O)C(C)(C)OC(C)(C)C1=O")
0
>>> observed_value("CCc1ccc(Oc2ccc(Cl)cc2OC)cc1C1=C(O)C(C)(C)OC(C)(C)C1=O")
0
>>> observed_value("CCc1ccc(Oc2ccc(F)cc2)cc1C1=C(O)C(C)(C)OC(C)(C)C1=O")
20
>>> observed_value("CCc1ccc(Oc2cnc3cc(F)ccc3n2)cc1C1=C(O)CC(C)(C)CC1=O")
100
>>> observed_value("CCc1ccc(Oc2ccc(C(F)(F)F)cc2Cl)cc1C1=C(O)[C@@H]2CC[C@](C)(C1=O)C2(C)C")
30
>>> observed_value("CCc1ccc(Oc2ccc(F)cc2Cl)cc1C1=C(O)CCCC1=O")
30
>>> observed_value("CCc1ccc(Oc2ncc(C(F)(F)F)cc2Cl)cc1C1=C(O)[C@@H]2CC[C@](C)(C1=O)C2(C)C")
100
>>> observed_value("CCc1ccc(Oc2ncc(Cl)cn2)cc1C1=C(O)C(C)(C)OC(C)(C)C1=O")
90

----------
Listed below: pest or weed control at 250 g/ha values for each entry.
Test system: Echinochloa crus-galli (ECHCG)
test: Pre-emergence herbicidal activity, glasshouse pot test
Type: in vivo
condition-summary: Echinochloa crus-galli, 312 h; Rate 250 g/ha; pre-emergence spray; evaluated after 13 days; read-out: Pre-emergence activity ECHCG (100=total damage to plant; 0=no damage to plant)
readout-name: pest or weed control at 250 g/ha (%)

>>> observed_value("CCc1ccc(Oc2ncc(C(F)(F)F)cc2C(F)(F)F)cc1C1=C(O)CC2(CCOCC2)CC1=O")
100
>>> observed_value("CCc1ccc(Oc2ccc([N+](=O)[O-])cc2F)cc1C1=C(O)C(C)(C)OC(C)(C)C1=O")
100
>>> observed_value("CCc1ccc(Oc2nc3cc(Cl)ccc3s2)cc1C1=C(O)C(C)(C)OC(C)(C)C1=O")
70
>>> observed_value("CCc1ccc(Oc2ccc(Br)cc2F)cc1C1=C(O)CCC(C)(C)C1=O")
60
>>> observed_value("CCc1ccc(Oc2ncc(Cl)cc2C(F)(F)F)cc1C1=C(O)[C@@H]2CC[C@](C)(C1=O)C2(C)C")
100
>>> observed_value("CCc1ccc(Oc2nc3ccccc3cc2C)cc1C1=C(O)C(C)(C)OC(C)(C)C1=O")
80
>>> observed_value("CCc1ccc(Oc2nccc(C(F)(F)F)n2)cc1C1=C(O)C(C)(C)OC(C)(C)C1=O")
80
>>> observed_value("CCc1ccc(Oc2nc3ccc([N+](=O)[O-])cc3s2)cc1C1=C(O)CC(C)(C)CC1=O")
100
